Listed compounds paired with reported Cellular growth rate (%)
Test system: SN12C
Method Notes: In vitro cytotoxicity, Development Therapeutics Program
Format: cell-based
Experimental Conditions: renal cancer, 1.0×10^−5 M
Source text: From the in vitro experiments of the Development Therapeutics Program of the Cancer Research Institute, the United States, it was known that the synthetic heterocyclic anthraquinone derivatives of the present invention have different inhibition levels to the different cancer cell lines under the concentration of 1.0×10^−5 M. Please refer to Table 2, which is the result of in vitro cytotoxicity of 2,7-disubstituted anthraquinone derivatives of the present invention.
# output: bare number, implied unit %

Before answering, review these 3 worked examples.
                                test_smiles     experimental_endpoint  numeric_value
0  CCN(CC)CCC(=O)Nc1ccc2c(c1)C(=O)c1cc(NC(=O)CCN(CC)CC)ccc1C2=O  Cellular growth rate (%)           8.63
1  CN(C)CC(=O)Nc1ccc2c(c1)C(=O)c1cc(NC(=O)CN(C)C)ccc1C2=O  Cellular growth rate (%)          27.99
2  CC(=O)Nc1ccc2c(c1)C(=O)c1cc(NC(C)=O)ccc1C2=O  Cellular growth rate (%)         113.35

[Q] Can you look up the measured Cellular growth rate (%) of "O=C1c2ccc(NC(=O)C3CC3)cc2C(=O)c2cc(NC(=O)C3CC3)ccc21" for me?
[A] 82.93

[Q] Field entry: "O=C(CCN1CCCC1)Nc1ccc2c(c1)C(=O)c1cc(NC(=O)CCN3CCCC3)ccc1C2=O"
[A] 6.68

###

Method Notes: MTT assay in H1299 cells
Format: cell-based
Experimental Conditions: human, H1299 cells (H1299/PhTERT-driven SEAP reporter system); H1299; compound concentration 10 μM; read-out: MTT (Inhibition μM ± SD)
Experimental Endpoint: viability at 24 h, 10 µM (%)
# output: bare number, implied unit %

                                test_smiles  numeric_value
0  O=C(Cc1ccccc1)Nc1ccc2c(c1)C(=O)c1cc(NC(=O)Cc3ccccc3)ccc1C2=O             96
1  CC(C)NCC(=O)Nc1ccc2c(c1)C(=O)c1cc(NC(=O)CNC(C)C)ccc1C2=O             26
2  O=C(CCN1CCCCC1)Nc1ccc2c(c1)C(=O)c1cc(NC(=O)CCN3CCCCC3)ccc1C2=O             44
3  CN1CCN(CCC(=O)Nc2ccc3c(c2)C(=O)c2cc(NC(=O)CCN4CCN(C)CC4)ccc2C3=O)CC1             80
4  CCCCNCCC(=O)Nc1ccc2c(c1)C(=O)c1cc(NC(=O)CCNCCCC)ccc1C2=O             52
5  CC(=O)Nc1ccc2c(c1)C(=O)c1cc(NC(C)=O)ccc1C2=O             83

[Q] Can you look up the measured viability at 24 h, 10 µM of "O=C(CN1CCCCC1)Nc1ccc2c(c1)C(=O)c1cc(NC(=O)CN3CCCCC3)ccc1C2=O" for me?
[A] 37

[Q] Field entry: "CCN(CC)CC(=O)Nc1ccc2c(c1)C(=O)c1cc(NC(=O)CN(CC)CC)ccc1C2=O"
[A] 47

###

System: CCRF-CEM
Method Notes: In vitro cytotoxicity, Development Therapeutics Program
Assay type: cell-based
Experimental Conditions: leukemia, 1.0×10^−5 M
Experimental Endpoint: Cellular growth rate (%)
# output: bare number, implied unit %

Before answering, review these 4 worked examples.
>>> df
                                   compound  target_under_test     experimental_endpoint  numeric_value
0  CCN(CC)CCC(=O)Nc1ccc2c(c1)C(=O)c1cc(NC(=O)CCN(CC)CC)ccc1C2=O [Compound 16]           CCRF-CEM  Cellular growth rate (%)          −6.02
1  O=C1c2ccc(NC(=O)C3CC3)cc2C(=O)c2cc(NC(=O)C3CC3)ccc21 [Compound 32]           CCRF-CEM  Cellular growth rate (%)          90.67
2  O=C(CCN1CCCC1)Nc1ccc2c(c1)C(=O)c1cc(NC(=O)CCN3CCCC3)ccc1C2=O [Compound 18]           CCRF-CEM  Cellular growth rate (%)           3.74
3  CN(C)CC(=O)Nc1ccc2c(c1)C(=O)c1cc(NC(=O)CN(C)C)ccc1C2=O [Compound 8]           CCRF-CEM  Cellular growth rate (%)         −13.21

[Q] Can you look up the measured Cellular growth rate (%) of CC(=O)Nc1ccc2c(c1)C(=O)c1cc(NC(C)=O)ccc1C2=O [Compound 26, 2,7-Bis(acetamido)anthraquinone] for me?
[A] 99.77
